- targetUnderTest: recombinant influenza polymerase trimer (RdRp) (Influenza A virus, UniProt P03431)
- Sequence (P03431 whole entry, looked up): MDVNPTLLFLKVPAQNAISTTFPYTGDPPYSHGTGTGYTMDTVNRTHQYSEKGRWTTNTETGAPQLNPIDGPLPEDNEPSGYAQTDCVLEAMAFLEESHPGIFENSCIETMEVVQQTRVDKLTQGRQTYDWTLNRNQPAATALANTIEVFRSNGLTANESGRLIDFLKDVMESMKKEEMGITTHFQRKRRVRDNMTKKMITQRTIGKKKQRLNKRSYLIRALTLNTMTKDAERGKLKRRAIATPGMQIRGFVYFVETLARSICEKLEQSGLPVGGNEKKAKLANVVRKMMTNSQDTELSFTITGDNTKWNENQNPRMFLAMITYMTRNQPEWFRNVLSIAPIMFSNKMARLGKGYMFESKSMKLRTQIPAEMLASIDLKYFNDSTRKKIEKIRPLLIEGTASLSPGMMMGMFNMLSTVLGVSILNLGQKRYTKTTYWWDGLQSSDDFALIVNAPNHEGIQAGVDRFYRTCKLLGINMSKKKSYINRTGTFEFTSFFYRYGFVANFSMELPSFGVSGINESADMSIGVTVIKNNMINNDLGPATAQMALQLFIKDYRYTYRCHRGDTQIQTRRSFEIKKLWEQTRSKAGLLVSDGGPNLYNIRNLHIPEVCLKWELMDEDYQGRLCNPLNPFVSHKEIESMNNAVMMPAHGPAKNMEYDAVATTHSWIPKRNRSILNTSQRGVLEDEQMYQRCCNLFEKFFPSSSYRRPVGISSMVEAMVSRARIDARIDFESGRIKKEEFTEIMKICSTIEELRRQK
- assayRemarks: Mechanism of action, gel-based incorporation assay with miniHA template and capped 33P-m7G167 primer
- Format: biochemical, Influenza A virus H1N1 strain A/PR/8
- statedConditions: 500 μM analog in place of GTP, 500 μM each CTP, UTP, ATP, miniHA template
observedProperty: Mode of action on RNA synthesis

C=C[C@]1(COP(=O)(O)OP(=O)(O)OP(=O)(O)O)O[C@@H](n2cnc3c(=O)[nH]c(N)nc32)[C@H](F)[C@@H]1O [4’vinyl-FdGTP]
direct chain-termination
N#CC1(COP(=O)(O)OP(=O)(O)OP(=O)(O)O)OC(n2cnc3c(=O)[nH]c(N)nc32)C(F)C1O (centres unmarked) [4’CN-FdGTP]
direct chain-termination
